FYI, the data here is from PubChem BioAssay (NCATS).

Assay: qHTS profiling of the MIPE4 collection as inhibitors of Plasmodium falciparum (3D7) proliferation (AID 743344);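 also: scaled between DMSO vehicle wells and 0.29 µM artemisinin as full inhibition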
Conditions: P. falciparum 3D7 in erythrocytes, SYBR Green DNA fluorescence, 72 h; at 28.5 µM unless noted
Protocol: Plasmodium falciparum is a virulent malarial parasite that kills 1-2 million people worldwide each year. […] Because mature erythrocytes lack DNA, only Plasmodium-derived DNA is detected. The SYBR Green viability assay was adapted from a method described previously (Plouffe et al., 2008). […] The following morning, fluorescence intensity at 485(14) nm excitation and 535(25) nm emission wavelengths was measured on an EnVision (Perkin Elmer) plate reader. […]
Record form. Attribute: parasite growth, % of DMSO control. Fill in for each entry.

# example entries with known answers
COC(=O)Nc1nc2ccc(C(=O)c3ccc(F)cc3)cc2[nH]1 | 66.2%
COc1cc(-c2nn(C3CCC(N4CCN(C(C)=O)CC4)CC3)c3ncnc(N)c23)ccc1NC(=O)c1cc2ccccc2n1C (stereo not given) | 5.39%
Nc1ccn([C@@H]2CS[C@H](CO)O2)c(=O)n1 | 404% [at 57.5 µM]

List the reported parasite growth, % of DMSO control of each molecule below.
1. O=C(O)c1ccc2c(c1)nc(Nc1cccc(Cl)c1)c1ccncc12
2. CN(C1CCc2c(c3ccccc3n2CC(=O)O)C1)S(=O)(=O)c1ccc(F)cc1 (stereo not given)
3. Cn1c(CNc2ccc(C(=N)N)cc2)nc2cc(C(=O)N(CCC(=O)O)c3ccccn3)ccc21
4. Cc1cc(C(=O)N2CCN(c3cccc(Cl)c3)CC2)n(-c2ccccc2)n1
5. CC(C)(C)c1cnc(CSc2cnc(NC(=O)C3CCNCC3)s2)o1
6. COc1cc(C(C)C)c2c(c1)S(=O)(=O)N(COc1cc(=O)n3cccc(OCCN4CCCCC4)c3n1)C2=O
7. O=C(O)[C@H](Cc1c[nH]c2ccccc12)N1C(=O)c2ccccc2C1=O

["6.23%", "15.9%", "98.6% [at 9.64 µM]", "97.2%", "11.9%", "101%", "99.6% [at 57.5 µM]"]
